Provenance of the data: patent US20250289893A1

Each entry below lists one item and its recorded Fluorescence Intensity Geomean (normalized to background) value.
target.under.test: T1, human CD1a expressed on cells (human, UniProt P06126 17-327; P61769 21-119)
T1 construct: also called HEK - CD1a; C1R - CD1a
assay.explanation: flow cytometry, MOLT4 cells, 100 µg/ml antibody
Report only the number, with the unit fold over background understood.

Example entries begin here.
111 (VR12113) (antibody, V domains shown, also called OX111) VH: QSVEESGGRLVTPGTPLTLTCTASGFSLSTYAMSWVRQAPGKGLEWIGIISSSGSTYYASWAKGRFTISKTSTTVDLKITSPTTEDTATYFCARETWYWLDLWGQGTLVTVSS VL: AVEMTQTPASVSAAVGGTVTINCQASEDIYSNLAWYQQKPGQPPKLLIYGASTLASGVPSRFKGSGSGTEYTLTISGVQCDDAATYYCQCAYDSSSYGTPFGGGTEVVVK : 3.9
77A (VR11851) (antibody, V domains shown, also called OX77a; antibody 77a) VH: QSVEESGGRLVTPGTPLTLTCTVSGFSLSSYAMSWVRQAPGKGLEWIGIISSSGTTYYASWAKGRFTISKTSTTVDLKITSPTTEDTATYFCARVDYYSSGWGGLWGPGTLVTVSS VL: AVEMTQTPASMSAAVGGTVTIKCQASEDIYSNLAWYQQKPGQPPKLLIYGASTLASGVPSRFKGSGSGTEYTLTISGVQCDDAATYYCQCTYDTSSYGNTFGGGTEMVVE : 0.8

Request: Kindly indicate its recorded Fluorescence Intensity Geomean (normalized to background). Item: 110 (VR12112) (antibody, V domains shown, also called OX110; antibody 110) VH: QSVEESGGRLVTPGTPLTLTCTVSGFSLSSYAMIWVRQAPGKGLEWIGIINSSDNTHYATWAKGRFTISKTSTTVDLKITSPTTEDTATYFCARDPYDYGYGWYFDLWGPGTLVTVSS VL: AQVLTQTPSPVSAAVGGTVTINCQASQSVFNNKNLAWYQQKPGQPPKLLIYKASTLASGVSSRFKGSGSGTQFALTISGVQCDDAATYYCQGEFSCSSTDCVTFGGGTEVVVK
Result: 5.2

Request: Read off the recorded Fluorescence Intensity Geomean (normalized to background) for 116 (VR12117) (antibody, V domains shown, also called OX116) VH: QSVEESGGRLVTPGTPLTLTCTVSGFSLSNYAMSWVRQAPGKGLEWIGIIYTTGFTYYASWVKGRFTISKTSTTVDLKITSPTTEDTATYFCARGLATYVSPPTRLDLWGQGTLVTVSS VL: AQVLTQTPSPVSAAVGGTVTINCQASQSIYNSKNLAWYQQKPGQPPKLLIYSASTLASGVPSRFKGSGSGTQFTLTISDLECDDAATYYCQGEFSCSSVDCATFGGGTEVVVK
Result: 3.7
